Origin of values: ChEMBL document CHEMBL3507680

- test_method_notes: Human HepG2 cell viability assay in 384 well format
- Format: toxicity, cell-based
- Design: dose 125 nL, time 70.5 hour; concentration not given beside the values
- settings: HepG2 cells, read-out: Inhibition
quantity_kind: cytotoxicity at 70.5 h (%)

[[record]]
molecule = "CCN1CCN(C(=O)c2cc(C(=O)OC)nn2-c2ccccc2)CC1"
recorded_measurement = 0.312

[[record]]
molecule = "CCC(CO)N(C/C(C)=C/c1ccco1)Cc1ccsc1 (stereo not given)"
recorded_measurement = 3.15

[[record]]
molecule = "O=C(CCN1CCCCCC1c1ccco1)N1CCOCC1 (stereo not given)"
recorded_measurement = -9.92

[[record]]
molecule = "Cc1noc(C)c1CNS(=O)(=O)N(C)Cc1ccc(Cl)cc1"
recorded_measurement = -5.95

[[record]]
molecule = "CN(Cc1ccc(C(=O)Nc2sccc2C#N)cc1)Cc1ccno1"
recorded_measurement = -5.41


====

- test_method_notes: Human HepG2 cell viability assay in 384 well format
- Type: toxicity, cell-based
- Set-up: dose 125 nL, time 70.5 hour; concentration not given beside the values
- settings: HepG2 cells, read-out: Inhibition
quantity_kind: cytotoxicity at 70.5 h (%)

[[record]]
compound = "COC(=O)COc1ccc(-c2noc(C3CCCO3)n2)cc1 (centres undefined)"
quantity_kind = "cytotoxicity at 70.5 h"
recorded_measurement = 24.5

[[record]]
compound = "Cc1nn(C)c(C)c1C(=O)N1CCN(c2ccncc2Cl)CC1"
quantity_kind = "cytotoxicity at 70.5 h"
recorded_measurement = -6.89

[[record]]
compound = "CC(C)(C)n1cc(CNc2ccc(CNS(C)(=O)=O)cc2)cn1"
quantity_kind = "cytotoxicity at 70.5 h"
recorded_measurement = -8.49

[[record]]
compound = "COC1CCN(C(=O)Cc2csc(-c3ccc(F)cc3)n2)CC1"
quantity_kind = "cytotoxicity at 70.5 h"
recorded_measurement = 0.103


====

- test_method_notes: Human HepG2 cell viability assay in 384 well format
- Format: toxicity, cell-based
- Design: dose 125 nL, time 70.5 hour; concentration not given beside the values
- settings: HepG2 cells, read-out: Inhibition
Listing: cytotoxicity at 70.5 h of selected molecules
quantity_kind: cytotoxicity at 70.5 h

[[record]]
molecule = "c1ccc(CNc2ncc(CN3CCCN4CCC[C@H]4C3)cn2)cc1"
recorded_measurement = "-3.55%"

[[record]]
molecule = "CC(O)CN1CCN(C(=O)c2cc3ccccc3c(=O)[nH]2)CC1 (configuration not stated)"
recorded_measurement = "-1.26%"

[[record]]
molecule = "Cc1[nH]c2ccc(C#N)cc2c1CCNc1ncnc2c1CCNCC2"
recorded_measurement = "-1.54%"

[[record]]
molecule = "Cc1nccn1CCC(=O)N1CCCN(CCCc2ccccc2)CC1"
recorded_measurement = "1.37%"

[[record]]
molecule = "CNC(=O)C1CN(C(=O)c2cccnc2)CCN(S(C)(=O)=O)C1 (configuration not stated)"
recorded_measurement = "-4.31%"

[[record]]
molecule = "CN1CCO[C@H]2CN(S(=O)(=O)c3ccc(C#N)cc3)C[C@H]21"
recorded_measurement = "3.3%"

[[record]]
molecule = "O=C(O)C(c1ccc2c(c1)OCO2)N1CCCCCC1 (configuration not stated)"
recorded_measurement = "-1.77%"

[[record]]
molecule = "COc1cc(-c2nccn2CCn2cccn2)cc2c1OCO2"
recorded_measurement = "-1.97%"

[[record]]
molecule = "O=c1[nH]ccc2cc(-c3cc(O)cc(CCC4CCCCN4)c3)ccc12 (configuration not stated)"
recorded_measurement = "-7.29%"

[[record]]
molecule = "Cn1ccnc1-c1cn(Cc2cn3c(n2)SCC3)nn1"
recorded_measurement = "-5.95%"

[[record]]
molecule = "CCc1sc(-c2nnc(CNC(C)Cn3cccn3)o2)cc1C (configuration not stated)"
recorded_measurement = "-11.3%"

[[record]]
molecule = "Cc1cc(NC(=O)CN2CCc3nn(C)c(=O)cc3C2)no1"
recorded_measurement = "-9.67%"

[[record]]
molecule = "CC(C)(O)CCc1cccc(C(=O)N2CCC[C@H]2C(N)=O)c1"
recorded_measurement = "29.2%"

[[record]]
molecule = "CN1CC(=O)N(c2cccc(F)c2)CC12CCN(Cc1cnn(C)c1)C2 (configuration not stated)"
recorded_measurement = "4.08%"

[[record]]
molecule = "CN(C)[C@@H]1CN(C(=O)c2cc3ccc(F)cc3[nH]2)C[C@H]1O"
recorded_measurement = "-2.24%"

[[record]]
molecule = "O=C1CN(S(=O)(=O)c2ccc(F)cc2)CC(O)CN1CC1CC1 (configuration not stated)"
recorded_measurement = "-9.49%"

[[record]]
molecule = "CC1(C)CN(C(=O)CC2CCS(=O)(=O)CC2)C[C@]1(C)O"
recorded_measurement = "-4.68%"

[[record]]
molecule = "O=c1[nH]c2cc(S(=O)(=O)N3CCC(c4ccsc4)CC3)ccc2o1"
recorded_measurement = "-5%"

[[record]]
molecule = "Cc1ccccc1-c1ncc(CNCc2csc(C(C)C)n2)s1"
recorded_measurement = "-5.31%"

[[record]]
molecule = "O=S(=O)(Cc1cccc2cccnc12)NC(CO)c1ccco1 (configuration not stated)"
recorded_measurement = "-9.35%"

[[record]]
molecule = "O=C(NC1CC2(CCN(CCO)CC2)c2ccccc21)c1ccno1 (configuration not stated)"
recorded_measurement = "17.6%"

[[record]]
molecule = "COc1cccc(Cn2cccc(C#N)c2=O)c1"
recorded_measurement = "-7%"

[[record]]
molecule = "COCCn1cc2c(n1)C(CNS(C)(=O)=O)OCC2 (configuration not stated)"
recorded_measurement = "-2.51%"

[[record]]
molecule = "CCc1nccn1C1CCCN(C(=O)c2cncnc2C)C1 (configuration not stated)"
recorded_measurement = "16%"

[[record]]
molecule = "Cc1cc(C)c(C#N)c(NCCn2cnnc2C(C)C)n1"
recorded_measurement = "0.173%"

[[record]]
molecule = "Cc1nc(CNC(=O)NC2CCCN(c3ncccn3)C2)cs1 (configuration not stated)"
recorded_measurement = "-14.1%"

[[record]]
molecule = "Cc1ccccc1CNc1nc(O)cc(C2CC(=O)N(C)C2)n1 (configuration not stated)"
recorded_measurement = "-7.17%"

[[record]]
molecule = "CC(C)C(C)NC(=O)Nc1ccc(CS(C)(=O)=O)cc1 (configuration not stated)"
recorded_measurement = "-8.12%"

[[record]]
molecule = "Cc1ncccc1CNC(CCO)C1CCCCC1 (configuration not stated)"
recorded_measurement = "1.16%"

[[record]]
molecule = "CCc1cc(CN(C)Cc2nc(-c3sccc3C)oc2C)on1"
recorded_measurement = "-9.39%"

[[record]]
molecule = "Fc1cccc(N2CCOC3(CCCN(c4nncs4)C3)C2)c1 (configuration not stated)"
recorded_measurement = "-2.67%"

[[record]]
molecule = "CC(=O)N1CC[C@@]2(O)CCCC[C@H]2[C@@H]1c1ccccc1"
recorded_measurement = "-0.54%"

[[record]]
molecule = "CN(C)Cc1nnn2c1CN(Cc1cccnc1)CCC2"
recorded_measurement = "-83.6%"

[[record]]
molecule = "Cc1nc(CN2CCO[C@H]3[C@@H](OCc4ccccn4)CC[C@@H]32)cs1"
recorded_measurement = "-23.4%"

[[record]]
molecule = "OC1CCCOC12CCN(CCCOc1ccccc1F)CC2 (configuration not stated)"
recorded_measurement = "-10.9%"

[[record]]
molecule = "Cc1nc(NC2CCCC2)cc(C2CCN2c2ncccn2)n1 (configuration not stated)"
recorded_measurement = "-5.59%"

[[record]]
molecule = "CCN1C(=O)C2(CCOCC2)c2cc(NC(=O)c3ccco3)ccc21"
recorded_measurement = "-8.84%"

[[record]]
molecule = "Cc1nc(C)n(CC2CCCN(CCOc3ccc(C#N)cc3)C2)n1 (configuration not stated)"
recorded_measurement = "-11.5%"

[[record]]
molecule = "O=C(c1ccc2cccc(F)c2n1)N1CCN(CCn2cccc2)CC1"
recorded_measurement = "9.26%"

[[record]]
molecule = "NC(=O)c1cnc(NC2CCC(c3ccccc3)CC2)c(Cl)c1 (configuration not stated)"
recorded_measurement = "-2.31%"

[[record]]
molecule = "CCOc1ccc(C#N)cc1NC(=O)N1CCC(n2cncn2)CC1"
recorded_measurement = "5.95%"

[[record]]
molecule = "Cc1ncc(C(=O)NCCNc2ccncc2)s1"
recorded_measurement = "-3.98%"

[[record]]
molecule = "CNS(=O)(=O)c1ccc(C(=O)NC2CCc3nc(C)cn3C2)o1 (configuration not stated)"
recorded_measurement = "-6.79%"

[[record]]
molecule = "COc1ccc(CN2CC[C@@H](O)[C@@H]2Cc2ccccc2)cc1"
recorded_measurement = "38.7%"

[[record]]
molecule = "O=c1[nH]nc2c(S(=O)(=O)N3CCCCCC3)cccn12"
recorded_measurement = "-7.77%"

[[record]]
molecule = "CCOC(=O)N1CCN(C(=O)CCn2cccc2)CC1"
recorded_measurement = "7.81%"

[[record]]
molecule = "COc1ccc(CNCc2ccnc(N3CCOCC3)c2)c(OC)c1"
recorded_measurement = "-10.2%"

